Test system: Staphylococcus epidermidis
Test: Antibacterial activity against Staphylococcus epidermidis ATCC 12228 assessed as inhibition of bacterial growth incubated for 16 to 24 hrs by broth microdilution method
Format: functional
Settings: time 16-24 hrs
MEASUREMENT_KIND: MBC (µM)
Response body: numeric value in µM, unit text excluded.

stdin: So what MBC did Cc1ccccc1C(c1cc([N+](=O)[O-])ccc1O)N1CCc2c(C#N)cccc21 (stereo not drawn) get with Staphylococcus epidermidis?
stdout: 18.9

stdin: So what MBC did Cc1ccc(C(c2cc([N+](=O)[O-])ccc2O)N2CCc3c(C#N)cccc32)cc1 (stereo not drawn) get with Staphylococcus epidermidis?
stdout: 302

stdin: So what MBC did O=[N+]([O-])c1ccc2c(c1)CCN2C(c1ccc(C(F)(F)F)cc1)c1cc([N+](=O)[O-])ccc1O (stereo not drawn) get with Staphylococcus epidermidis?
stdout: 2.36

----------
Test system: Enterococcus faecalis
Assay: Antibacterial activity against vancomycin-resistant Enterococcus faecalis ATCC 51299 assessed as inhibition of bacterial growth incubated for 16 to 24 hrs by broth microdilution method
Type: functional
Conditions: time 16-24 hrs
MBC: recorded values

stdin: Which measured MBC value corresponds to O=[N+]([O-])c1ccc2c(c1)CCN2C(c1ccc(C(F)(F)F)cc1)c1cc([N+](=O)[O-])ccc1O (stereo not given) ?
stdout: 142 µM

stdin: Which measured MBC value corresponds to COc1ccc2c(c1)CCN2C(c1ccc(C)cc1)c1cc([N+](=O)[O-])ccc1O (stereo not given) ?
stdout: 160 µM

stdin: Which measured MBC value corresponds to Cc1ccccc1C(c1cc([N+](=O)[O-])ccc1O)N1CCc2cc(Cl)ccc21 (stereo not given) ?
stdout: 158 µM

stdin: Which measured MBC value corresponds to Cc1ccccc1C(c1cc([N+](=O)[O-])ccc1O)N1CCc2cc([N+](=O)[O-])ccc21 (stereo not given) ?
stdout: 154 µM

stdin: Which measured MBC value corresponds to Cc1ccc(C(c2cc([N+](=O)[O-])ccc2O)N2CCc3cc([N+](=O)[O-])ccc32)cc1 (stereo not given) ?
stdout: 154 µM

----------
mortality at 24 h, 10 ug/ml: recorded values
Assay: Toxicity in Artemia salina assessed as mortality at 10 ug/ml measured after 24 hrs
Settings: at 10 µg/mL
Response body: numeric value in %, unit text excluded.

MOLECULE	MEASUREMENT_KIND	NUMBER
Cc1ccccc1C(c1cc([N+](=O)[O-])ccc1O)N1CCc2cc([N+](=O)[O-])ccc21 (stereo not drawn)	mortality at 24 h, 10 ug/ml	3

Now let's try a different one.
stdin: Which measured mortality at 24 h, 10 ug/ml value corresponds to O=[N+]([O-])c1ccc(O)c(C(c2ccc(C(F)(F)F)cc2)N2CCc3ccccc32)c1 (stereo not drawn) ?
stdout: 8

----------
IC50 at 24 h: recorded values
Experiment: Toxicity in Saccharomyces cerevisiae ATCC 2601 assessed as reduction in cell viability measured after 24 hrs by microdilution method
Conditions: Saccharomyces cerevisiae, Saccharomyces cerevisiae ATCC 2601 cells

COMPOUND	RESULT
O=[N+]([O-])c1ccc(O)c(C(c2ccc(Cl)cc2)N2CCc3ccccc32)c1 (stereo not given)	> 100 µM
O=[N+]([O-])c1ccc(O)c(C(c2ccc(C(F)(F)F)cc2)N2CCc3ccccc32)c1 (stereo not given)	> 100 µM

stdin: Which measured IC50 at 24 h value corresponds to Cc1ccccc1C(c1cc([N+](=O)[O-])ccc1O)N1CCc2cc([N+](=O)[O-])ccc21 (stereo not given) ?
stdout: 121 µM

stdin: Which measured IC50 at 24 h value corresponds to Cc1ccc(C(c2cc([N+](=O)[O-])ccc2O)N2CCc3cc([N+](=O)[O-])ccc32)cc1 (stereo not given) ?
stdout: > 100 µM

stdin: Which measured IC50 at 24 h value corresponds to Cc1ccccc1C(c1cc([N+](=O)[O-])ccc1O)N1CCc2cc(Br)ccc21 (stereo not given) ?
stdout: > 100 µM

The reported measurements were obtained from ChEMBL document CHEMBL4837201.
